Property: Glycine max (Efficacy in %); scope: individual compounds
test system: Glycine max; assay: Crop compatibility pre-emergence (greenhouse pot trial); format: in vivo; details: application rate 20 g/ha, effect vs untreated controls

| COMPOUND | UNITS_LABEL | Glycine max (Efficacy in %) |
| --- | --- | --- |
| Cn1c(C(F)(F)F)cc(=O)n(-c2cc(SCC(C)(C)C(=O)OCC3CCCO3)c(Cl)cc2F)c1=O (centres unmarked) | % | 0 |
| CC(Sc1cc(-n2c(=O)cc(C(F)(F)F)n(C)c2=O)c(F)cc1Cl)C(=O)NCC1(C)CCCO1 (centres unmarked) | % | 0 |
| CCC(Sc1cc(-n2c(=O)cc(C(F)(F)F)n(C)c2=O)c(F)cc1Cl)C(=O)OCC1CCOC1 (centres unmarked) | % | 20 |
| COCCCOC(=O)C(C)Sc1cc(-n2c(=O)cc(C(F)(F)F)n(C)c2=O)c(F)cc1Cl (centres unmarked) | % | 0 |
| CC(Sc1cc(-n2c(=O)cc(C(F)(F)F)n(C)c2=O)c(F)cc1Cl)C(=O)NCC1CCCO1 (centres unmarked) | % | 10 |
